Below, each entry is listed with its recorded pIC50.
# Tested on: HT-29
# experimental.details: Antiproliferative activity against human HT-29 cells assessed as growth inhibition incubated for 48 hrs by sulforhodamine B assay
# Type: functional, cell-based
# recorded.conditions: HT-29, 48 h
pIC50: −log10 of the molar value.
assay.endpoint: pIC50

>>> endpoint_value("O=C(NCCCl)Nc1ccc(S(=O)(=O)Oc2c(F)cccc2F)cc1")
5.39
>>> endpoint_value("O=C(NCCCl)Nc1ccc(S(=O)(=O)Oc2ccc(I)cc2)cc1")
5.02
>>> endpoint_value("Cc1ccc(OS(=O)(=O)c2ccc(NC(=O)NCCCl)cc2)c(C)c1")
5.44
>>> endpoint_value("O=C(NCCCl)Nc1ccc(S(=O)(=O)Oc2ccccc2)cc1")
4.77
>>> endpoint_value("Cc1ccc(C)c(OS(=O)(=O)c2ccc(NC(=O)NCCCl)cc2)c1")
5.82
>>> endpoint_value("CCc1ccccc1OS(=O)(=O)c1ccc(NC(=O)NCCCl)cc1")
5.48
>>> endpoint_value("O=C(NCCCl)Nc1ccc(S(=O)(=O)Oc2ccccc2I)cc1")
5.82
>>> endpoint_value("Cc1ccccc1OS(=O)(=O)c1ccc(NC(=O)NCCCl)cc1")
5.31
>>> endpoint_value("CCOc1ccc(OS(=O)(=O)c2ccc(NC(=O)NCCCl)cc2)cc1")
5.11
